# ASSAY_REMARKS: ACEA_AR_agonist_AUC_viability: ACEA Biosciences xCELLigence Real-Time Cell Analysis on Androgen Receptor Agonism for Viability (AID 2283775)
# Experimental: ACEA_AR_agonist is a cell-based, single-readout assay that uses 22Rv1, a human prostate cancer cell line, with measurements taken at 80 hours after chemical dosing in a 384-well plate, although TO5 and TO6 (mc0.srcf) used a 96-well plate. Differences in plate size can be ignored given data normalization.ACEA_AR_80hr is one of two assay component(s) measured or calculated from the ACEA_AR assay. […]
Inconclusive results are not listed. Calls of active or inactive are those of the source. The calls were made as follows: active = hit-call score of the fitted dose curve at least 0.9, where 1 is the maximum; inconclusive = response in the unintended direction; inactive = score below 0.9.
Outcome field: choose from active, inactive

Incoming: Name the outcome recorded for CCOC(=O)CC in the assay.
Outgoing: inactive

Incoming: Name the outcome recorded for CCCCCCCC/C=C\CCCCCCCC(=O)OCCO in the assay.
Outgoing: inactive

Incoming: Name the outcome recorded for CCCCOCCOC(=O)COc1nc(Cl)c(Cl)cc1Cl in the assay.
Outgoing: inactive

Incoming: Name the outcome recorded for CCCCCCCCCCCCCOP(=O)(O)O in the assay.
Outgoing: inactive

Incoming: Name the outcome recorded for CCCCCCC1(C)CCC(=O)O1 (stereo not given) in the assay.
Outgoing: active
